// provenance: patent US12201632B2

Tested on: cortisol-producing adrenal adenoma cultures
Assay: Cortisol production in primary cortisol-producing adrenal adenoma cultures
Assay type: cell-based, human
Conditions: CPA no. 4, basal condition, 3 days; read-out: IC50 inhibition of cortisol production
Description: To obtain primary cultures, adrenal specimens (adrenocortical adenomas, adrenal hyperplasias and adrenocortical carcinomas) were collected after adrenalectomy at the department of Surgery, Erasmus University Medical Center, Rotterdam, the Netherlands, between April 2016 and May 2018. […] Cell viability and cell amount were counted by trypan blue exclusion. […]
ENDPOINT: pIC50
Reminder that pIC50 means the negative base-10 logarithm of the concentration expressed in mol/L.

Q: I am curious: what pIC50 value has been reported for CC(=O)N1CCN(c2ccc(OC[C@@H]3CO[C@@](Cn4ccnc4)(c4ccc(Cl)cc4Cl)O3)cc2)CC1 (relative stereo) ?
Ans: 7.20
